Measured TGI accompanies every entry in the list below.
Tested on: NCI-H522 lung
assay-notes: NCI tumour cell line growth inhibition, 48 h
measured-attribute: TGI (µM)

molecule=C=C1C(=O)O[C@H]2[C@H]1CC/C(COC(=O)CSCSCC(=O)OC/C1=C/CC[C@@]3(C)O[C@H]3[C@H]3OC(=O)C(=C)[C@@H]3CC1)=C\CC[C@@]1(C)O[C@@H]21 tgt="NCI-H522 lung" measured_attribute=TGI qualifier_symbol== endpoint_result=3.2
molecule=O=C1Nc2ccccc2C1=Nc1cccc2ncccc12 tgt="NCI-H522 lung" measured_attribute=TGI qualifier_symbol=> endpoint_result=100
molecule=C[C@H](NC(=O)[C@@H](C)N)[C@H](Oc1ccc2c(cnn2-c2ccc(F)cc2)c1)c1ccc2c(c1)OCCO2 tgt="NCI-H522 lung" measured_attribute=TGI qualifier_symbol== endpoint_result=3.78
molecule=CN(/N=C/c1cccc2cccnc12)c1ccc([N+](=O)[O-])cc1[N+](=O)[O-] tgt="NCI-H522 lung" measured_attribute=TGI qualifier_symbol== endpoint_result=57.2
molecule=CCOC(=O)Nc1ccc2c(c1)/C(=N\NC(N)=S)c1ccccc1-2 tgt="NCI-H522 lung" measured_attribute=TGI qualifier_symbol== endpoint_result=12.7
molecule="O=C1CC(O)CC(=O)C1=C(O)CCCCCCCCCCc1ccccc1 (stereo not drawn)" tgt="NCI-H522 lung" measured_attribute=TGI qualifier_symbol=> endpoint_result=100
molecule=C/C(N=NS(=O)(=O)c1ccccc1)=C1\C=CC=CN1O tgt="NCI-H522 lung" measured_attribute=TGI qualifier_symbol=> endpoint_result=100
molecule=C[C@]12CC[C@@H]3c4ccc(O)cc4CC[C@H]3[C@@H]1CC[C@@H]2OP(=O)(O)O tgt="NCI-H522 lung" measured_attribute=TGI qualifier_symbol=> endpoint_result=100
molecule=CN(C)CCCNC(=O)c1c(O)c2ccccc2[nH]c1=O tgt="NCI-H522 lung" measured_attribute=TGI qualifier_symbol=> endpoint_result=100
molecule=C=C(C)[C@@H]1CC[C@]2(C)CC[C@]3(C)[C@H](CC[C@@H]4[C@@]5(C)CC[C@H](O)C(C)(C)[C@@H]5CC[C@]43C)[C@@H]12 tgt="NCI-H522 lung" measured_attribute=TGI qualifier_symbol== endpoint_result=55.7
molecule=CCCCCCCCNc1cc2c3c(c1)CCCN3CCC2 tgt="NCI-H522 lung" measured_attribute=TGI qualifier_symbol== endpoint_result=6.47
molecule="CCN1C(=O)N(CC)C2C1NN=c1s/c(=C\\c3cccc(F)c3)c(=O)n12 (stereo not drawn)" tgt="NCI-H522 lung" measured_attribute=TGI qualifier_symbol== endpoint_result=33.2
molecule="NC(=O)C(=O)N/N=C1\\C(=O)N(c2ccc(Cl)cc2Cl)C(=O)C1C(=O)Nc1ccc(Cl)cc1Cl (stereo not drawn)" tgt="NCI-H522 lung" measured_attribute=TGI qualifier_symbol=> endpoint_result=100
molecule=CC(=O)OC/C=C/[C@H](O[Si](C)(C)C(C)(C)C)[C@@H](O)/C=C/COC(C)=O tgt="NCI-H522 lung" measured_attribute=TGI qualifier_symbol=> endpoint_result=100
molecule=CCCCON(OC(=O)c1ccc2ccccc2c1)C(=O)c1ccccc1 tgt="NCI-H522 lung" measured_attribute=TGI qualifier_symbol=> endpoint_result=100
molecule=ClCc1cccc2c(CCl)cccc12 tgt="NCI-H522 lung" measured_attribute=TGI qualifier_symbol== endpoint_result=16.3
molecule=CCc1ccccc1NC(=O)C1=C(C)NC(C)=C(C(=O)Nc2ccccc2CC)C1c1ccccc1Cl tgt="NCI-H522 lung" measured_attribute=TGI qualifier_symbol=> endpoint_result=100
molecule=S=c1nc(N2CCCCC2)c2cn[nH]c2[nH]1 tgt="NCI-H522 lung" measured_attribute=TGI qualifier_symbol== endpoint_result=41.4
molecule=N#Cc1ccc(OCc2nc(N)nc(N)c2-c2ccc(Cl)c(Cl)c2)cc1 tgt="NCI-H522 lung" measured_attribute=TGI qualifier_symbol== endpoint_result=19.9
molecule=O=C(c1ccccc1)n1c(Cc2ccccc2)nc2cc(C34CC5CC(CC(C5)C3)C4)ccc21 tgt="NCI-H522 lung" measured_attribute=TGI qualifier_symbol=> endpoint_result=100
molecule=Clc1nc(Cl)c2ncn(CC3(Cn4cnc5c(Cl)nc(Cl)nc54)COC3)c2n1 tgt="NCI-H522 lung" measured_attribute=TGI qualifier_symbol== endpoint_result=3.07
molecule=C=C(CN1C(=O)CN(C)C1=O)c1ccc(C(=O)Nc2ccccc2N)cc1 tgt="NCI-H522 lung" measured_attribute=TGI qualifier_symbol== endpoint_result=36.2
molecule=COC(=O)c1ccc(-c2nc3cc(Cl)c(Cl)cc3nc2C#N)cc1 tgt="NCI-H522 lung" measured_attribute=TGI qualifier_symbol=> endpoint_result=100
molecule="CC1OC(OC2C(O)COC(OC3C(C)OC(OC4C(OC(=O)[C@]56CCC(C)(C)C[C@@H]5C5=CCC7[C@@]8(C)C[C@H](O)[C@H](OC9OC(CO)C(O)C(OC%10OC(CO)C(O)C(O)C%10O)C9O)[C@@](C)(CO)[C@@H]8CC[C@@]7(C)[C@]5(C)CC6)OCC(O)C4O)C(O)C3OC3OCC(O)(CO)C3O)C2O)C(O)C(O)C1O (stereo partly drawn)" tgt="NCI-H522 lung" measured_attribute=TGI qualifier_symbol== endpoint_result=17.4
molecule="C=C(CCOC)CCC1CCCCC(=C)[C@H]1OC(C)=O (stereo partly drawn)" tgt="NCI-H522 lung" measured_attribute=TGI qualifier_symbol=> endpoint_result=100
molecule="Brc1ccc(C2CC(c3cccc4ccccc34)=Nc3ccccc3S2)cc1 (stereo not drawn)" tgt="NCI-H522 lung" measured_attribute=TGI qualifier_symbol=> endpoint_result=100
molecule=Oc1c(-c2nnc(-c3ccccc3Cl)o2)sc2nnc(-c3ccccc3)c(-c3ccccc3)c12 tgt="NCI-H522 lung" measured_attribute=TGI qualifier_symbol== endpoint_result=23.5
molecule="COC(=O)/C=C\\COCC1C2CCC(=O)C21 (stereo not drawn)" tgt="NCI-H522 lung" measured_attribute=TGI qualifier_symbol== endpoint_result=7.83
molecule="CC[C@@]1(O)C(=O)OCc2c1cc1n(c2=O)Cc2c-1nc1ccccc1c2/C=N\\NC(=O)C(N)CO (stereo partly drawn)" tgt="NCI-H522 lung" measured_attribute=TGI qualifier_symbol=> endpoint_result=42.2
molecule=Cc1ccc(Cc2n[nH]c(=O)n2Nc2ccccc2)cc1 tgt="NCI-H522 lung" measured_attribute=TGI qualifier_symbol=> endpoint_result=100
molecule=O=c1[nH]c(=O)c2cn[nH]c2[nH]1 tgt="NCI-H522 lung" measured_attribute=TGI qualifier_symbol=> endpoint_result=100
molecule=Cc1ccc2nc3c(=O)[nH]c(=O)nc-3n(C)c2c1C tgt="NCI-H522 lung" measured_attribute=TGI qualifier_symbol=> endpoint_result=100
molecule=CCN(Cc1ccc(Cl)cc1)c1ccc(CO)c(Cl)c1 tgt="NCI-H522 lung" measured_attribute=TGI qualifier_symbol== endpoint_result=22.6
molecule="CC(CC[C@@H](O)C(C)(C)O)C1[C@@H](O)CC2(C)C3CC(O)C4C(C)(C)[C@@H](OC5OC(CO)C(O)C(O)C5O)CC[C@@]45C[C@@]35CC[C@]12C (stereo partly drawn)" tgt="NCI-H522 lung" measured_attribute=TGI qualifier_symbol=> endpoint_result=10
molecule=CC(=O)c1ccc2c(c1)c1c(C)c3c[n+](C)ccc3c(C)c1n2C tgt="NCI-H522 lung" measured_attribute=TGI qualifier_symbol=> endpoint_result=100
molecule=O=c1ccn2n1Cc1ccccc1C2 tgt="NCI-H522 lung" measured_attribute=TGI qualifier_symbol=> endpoint_result=100
molecule=COc1cc(C=O)cc(/C=N/n2c3ccccc3c3ccccc32)c1O tgt="NCI-H522 lung" measured_attribute=TGI qualifier_symbol== endpoint_result=73.2
molecule=Cc1ccc(C2=Nn3c(nc4sc(C)c(C)c4c3=O)SC2)cc1 tgt="NCI-H522 lung" measured_attribute=TGI qualifier_symbol=> endpoint_result=100
